Below are compounds with their IC50 as measured on Human CARM1 (PRMT4) (Homo sapiens (Human), UniProt Q86X55).
Sequence (Q86X55 other isoform, or with tags, fused parts or gaps isoform Q86X55-1): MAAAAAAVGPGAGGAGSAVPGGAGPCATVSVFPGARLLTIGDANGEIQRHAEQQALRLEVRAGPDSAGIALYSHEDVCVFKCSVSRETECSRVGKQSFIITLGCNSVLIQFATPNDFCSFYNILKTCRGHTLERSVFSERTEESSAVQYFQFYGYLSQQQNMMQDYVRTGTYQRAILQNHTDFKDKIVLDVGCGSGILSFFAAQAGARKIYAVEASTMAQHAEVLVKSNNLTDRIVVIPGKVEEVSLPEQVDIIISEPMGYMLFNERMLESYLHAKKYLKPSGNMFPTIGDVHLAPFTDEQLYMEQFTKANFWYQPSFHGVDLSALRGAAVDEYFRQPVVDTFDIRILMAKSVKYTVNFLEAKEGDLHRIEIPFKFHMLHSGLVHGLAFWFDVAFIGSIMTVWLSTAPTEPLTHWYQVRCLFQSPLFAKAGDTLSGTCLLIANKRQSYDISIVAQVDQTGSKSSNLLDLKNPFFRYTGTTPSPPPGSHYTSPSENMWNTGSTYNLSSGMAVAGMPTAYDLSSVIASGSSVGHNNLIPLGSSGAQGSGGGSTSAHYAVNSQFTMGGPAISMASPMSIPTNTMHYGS

>  <COMPOUND>
CNCC(O)COc1cccc(-c2nc(NC3CCOC3)c(C)c(N3CCN(CC(F)(F)F)CC3)n2)c1 (stereo not drawn) [Example 449-1a]

>  <TEST RESULT>
< 100 nM

$$$$
>  <COMPOUND>
CCN(CC)c1nc(-c2cccc(OCC(O)CNC)c2)nc(N2CCOCC2)c1C (stereo not drawn) [Example 682-1a]

>  <TEST RESULT>
< 100 nM

$$$$

For the next question, use this compound.
The recorded IC50 for CNC[C@H](O)COc1ccc(Cl)c(-c2nc(-c3c(C)noc3C)c(C)c(N3CCC4(CCN(C5CC5)C4)C3)n2)c1 (stereo partly drawn) [Example 138-1a] is < 100 nM

----------
IC50, Human CARM1 (PRMT4) (Homo sapiens (Human), UniProt Q86X55): measured values

For orientation, consider the following solved cases.
>  <COMPOUND>
CNCC(O)COc1cccc(-c2nc(NC3C[C@H]4CC[C@@H](C3)N4C(=O)OC)c(C)c(-c3c(C)noc3C)n2)c1 (stereo partly shown) [Example 242-1a]

>  <IC50>
< 100 nM

$$$$
>  <COMPOUND>
CNCC(O)COc1cccc(-c2nc(OC3CCOCC3)c(C)c(-c3c(C)noc3C)n2)c1 (stereo not shown) [Example 181-1a]

>  <IC50>
< 100 nM

$$$$
>  <COMPOUND>
CNCC(O)COc1cccc(-c2nc(N[C@H]3CCOC3)c(C)c(C(=O)N(C)CC3CCOCC3)n2)c1 (stereo partly shown) [Example 363-1a]

>  <IC50>
100 to 1000 nM

$$$$

Lab entry: Human CARM1 (PRMT4) (Homo sapiens (Human), UniProt Q86X55) assay, compound CNCC(O)COc1cccc(-c2nc(-c3cc4ccccc4o3)cc(N(C)C3CCOCC3)n2)c1 (stereo not shown) [Example 570-1a] , IC50 = < 100 nM

----------
# MEASURED ON: Human CARM1 (PRMT4) (Homo sapiens (Human), UniProt Q86X55)
# TEST METHOD NOTES: CARM1 enzyme assay on peptide substrate (3H-SAM Flashplate)
# COND: Biochemical potencies, classification codes; read-out: Biochem IC50
# From the text: S-adenosylmethionine (SAM), S-adenosylhomocysteine (SAH), bicine, Tween20, dimethylsulfoxide (DMSO), bovine skin gelatin (BSG), sodium butyrate and Tris(2-carboxyethyl)phosphine hydrochloride solution (TCEP) were purchased from Sigma-Aldrich at the highest level of purity possible. ^3H-SAM was purchase from American Radiolabeled Chemicals with a specific activity of 80 Ci/mmol. 384-well streptavidin Flashplates were purchased from PerkinElmer. […]
Hi there, I'd appreciate the recorded IC50 for every entry that follows.

// worked examples, IC50 included
>  <COMPOUND>
CNCC(O)COc1cc(NC)cc(-c2nc(NC3CCOCC3)c(C)c(-c3c(C)noc3C)n2)c1 (stereo not shown)

>  <QUANTITY NAME>
IC50

>  <TEST RESULT>
< 100 nM

$$$$
>  <COMPOUND>
CNCC(O)COc1ccc(Cl)c(-c2nc(NC3CCN(C(=O)OC)CC3)c(Cl)c(-c3c(C)noc3C)n2)c1 (stereo not shown)

>  <QUANTITY NAME>
IC50

>  <TEST RESULT>
< 100 nM

$$$$
>  <COMPOUND>
CNCC(O)COc1cc(Cl)cc(-c2nc(C(=O)NCC3CCOCC3)cc(N(C)C3CCOCC3)n2)c1 (stereo not shown)

>  <QUANTITY NAME>
IC50

>  <TEST RESULT>
< 100 nM

$$$$

Record CNCC(O)COc1cccc(-c2nc(N[C@@H]3CCOC3)c(C)c(-c3ccc(OC)nc3)n2)c1 (stereo partly shown) , field IC50: < 100 nM
